B1: Hairpin Ribozyme (parent)
chain: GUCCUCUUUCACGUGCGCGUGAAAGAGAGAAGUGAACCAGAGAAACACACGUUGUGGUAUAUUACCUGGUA

- Variants of: B1
- protocol_notes: self-cleavage, relative activity (ratio to wild type); higher = more cleavage; co-transcriptional
Returns one of 1 (yes) or 0 (no); 1 (yes) when self-cleavage is >= 0.3.

Task: Could you please find out whether GUCCUCUUUCACGUGCGCGUGAUAGAGAGAAGUGAACCAGAGAAACACACGUUAUGGUAUAUUACCUGGUA [A23U G54A] has self-cleavage that meets 0.3 or exceeds it?
Result: 1 (yes)

Task: Could you please find out whether GUCCUCUUUCACGUGCGCGUGAAAGAGAGAAGUGAACCAGAGAAACACACGUUGUGGUAUAUUACCAGGAA [U67A U70A] has self-cleavage that meets 0.3 or exceeds it?
Result: 0 (no)

Task: Reported self-cleavage reaches at least 0.3 for GUCCUCUUUUACGUGCGCGUGAAAGAGAGAAGUGAUCCAGAGAAACACACGUUGUGGUAUAUUACCUGGUA [C10U A36U] ?
Result: 1 (yes)

---
Task: Would you say GUCCUCUUUCACGUGCGCGUGAAAGAGCGAAGUGAACCAGAGAAACACACGUUGUGGUAUAUUACCUGGGA [A28C U70G] shows self-cleavage at minimum 0.3?
Result: 1 (yes)

Task: Say whether GUCCUCUUUCACGUGCGCGUGAAAGAGAGAAGUGAACCAGAGAAACACACGUUCUGGUAUCUUACCUGGUA [G54C A61C] shows self-cleavage of 0.3 or more.
Result: 0 (no)

Data provenance is the RNAGym collection of RNA variant scans (doi:10.7554/elife.80360).
